Consider the following binders; for each one, report its cAMP EC50 (nM) Exp. 2.
- test_target: T1, apelin receptor (AGTRL1) on CHO-K1 cells (UniProt P35414 1-380, limits assumed)
- T1 sequence (looked up): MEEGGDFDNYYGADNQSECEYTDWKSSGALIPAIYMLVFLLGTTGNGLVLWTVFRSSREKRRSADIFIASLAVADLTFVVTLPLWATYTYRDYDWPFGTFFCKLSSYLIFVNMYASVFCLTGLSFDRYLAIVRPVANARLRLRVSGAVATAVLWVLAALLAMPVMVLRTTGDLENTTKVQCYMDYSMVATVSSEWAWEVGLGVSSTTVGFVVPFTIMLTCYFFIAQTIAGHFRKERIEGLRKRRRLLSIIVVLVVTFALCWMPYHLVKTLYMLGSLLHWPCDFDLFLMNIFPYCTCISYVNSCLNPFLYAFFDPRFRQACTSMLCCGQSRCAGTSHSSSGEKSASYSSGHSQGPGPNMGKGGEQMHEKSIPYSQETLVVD
- assay: cell-based or functional assay
Give bare numbers, in nM.

Solved entries:
- ELA-C (Fc fusion) DKTHTSPPSPAPEAAGGPSVFLFPPKPKDTLMISRTPEVTCVVVDVSHEDPEVKFNWYVDGVEVHNAKTKPREEQYNSTYRVVSVLTVLHQDWLNGKEYKCKVSNKALPAPIEKTISKAKGQPREPQVYTLPPSREEMTKNQVNLTCLVKGFYPSDIAVEWESNGQPENNYKTTPPVLDSDGSFFLNSTLTVDKSRWQQGNVFSCSVMHEALHNHYTQKSLSLSPGKGGGGSGGGGSGGGGSKLRKHNCLQRRCMILHSRVPFP: 1
- ELA-D (Fc fusion) DKTHTSPPSPAPEAAGGPSVFLFPPKPKDTLMISRTPEVTCVVVDVSHEDPEVKFNWYVDGVEVHNAKTKPREEQYNSTYRVVSVLTVLHQDWLNGKEYKCKVSNKALPAPIEKTISKAKGQPREPQVYTLPPSREEMTKNQVNLTCLVKGFYPSDIAVEWESNGQPENNYKTTPPVLDSDGSFFLNSTLTVDKSRWQQGNVFSCSVMHEALHNHYTQKSLSLSPGKGGGGSGGGGSGGGGSKLRKHNCLQRRCMPLHQRVPFP: 4.4
- ELA-G (Fc fusion) DKTHTSPPSPAPEAAGGPSVFLFPPKPKDTLMISRTPEVTCVVVDVSHEDPEVKFNWYVDGVEVHNAKTKPREEQYNSTYRVVSVLTVLHQDWLNGKEYKCKVSNKALPAPIEKTISKAKGQPREPQVYTLPPSREEMTKNQVNLTCLVKGFYPSDIAVEWESNGQPENNYKTTPPVLDSDGSFFLNSTLTVDKSRWQQGNVFSCSVMHEALHNHYTQKSLSLSPGKGGGGSGGGGSGGGGSKLRKHNCLQRRCMPLHSYVPFP: 14.3
- ELA-H (Fc fusion) DKTHTSPPSPAPEAAGGPSVFLFPPKPKDTLMISRTPEVTCVVVDVSHEDPEVKFNWYVDGVEVHNAKTKPREEQYNSTYRVVSVLTVLHQDWLNGKEYKCKVSNKALPAPIEKTISKAKGQPREPQVYTLPPSREEMTKNQVNLTCLVKGFYPSDIAVEWESNGQPENNYKTTPPVLDSDGSFFLNSTLTVDKSRWQQGNVFSCSVMHEALHNHYTQKSLSLSPGKGGGGSGGGGSGGGGSKLRKHNCLQRRCMPYHSRVPFP: 5.8

input: Give the measured cAMP EC50 (nM) Exp. 2 for ELA-F (Fc fusion) DKTHTSPPSPAPEAAGGPSVFLFPPKPKDTLMISRTPEVTCVVVDVSHEDPEVKFNWYVDGVEVHNAKTKPREEQYNSTYRVVSVLTVLHQDWLNGKEYKCKVSNKALPAPIEKTISKAKGQPREPQVYTLPPSREEMTKNQVNLTCLVKGFYPSDIAVEWESNGQPENNYKTTPPVLDSDGSFFLNSTLTVDKSRWQQGNVFSCSVMHEALHNHYTQKSLSLSPGKGGGGSGGGGSGGGGSKLRKHNCLKRRCMPLHSRVPFP
output: 1
